# pIC50 per entry
testedTarget: APJ (Homo sapiens)
Construct: expressed in transfected cells; host or cells: CHO (CHO-A10; clone 6 for the cAMP assay)
assayProtocol: Receptor binding assay-2 (compound in Reference Example 2 used)
testParameters: compound in Reference Example 2 used as ligand; read-out: IC50
Protocol: This product was mixed with an equal volume of an assay buffer (50 mM Tris-HCl/pH 7.5, 5 mM EDTA, 0.5 mM PMSF, 20 μg/ml leupeptin, 0.1 μg/ml pepstatin A, 4 μg/ml E-64 (Peptide Research Laboratory, Co.), 0.1% bovine serum albumin) and stored at −30° C. before use. CHO-A10 cells were cultured, recovered with PBS containing 5 mM EDTA from a culture vessel, and suspended in the above-mentioned assay buffer not containing bovine serum albumin. […]
Non-standard residues stand in square brackets, D forms with d. Residues, ends and D or L forms follow the SMILES beside them. Phe(4-Cl) = N[C@@H](Cc1ccc(Cl)cc1)C(=O)O
FYI, pIC50 means -log10 of a concentration in mol per litre.

molecule | pIC50
CC(C)C[C@H](NC(=O)[C@H](CCCNC(=N)N)NC(=O)[C@@H]1CCCN1C(=O)[C@H](CCCNC(=N)N)NC(=O)[C@H](CCC(N)=O)NC(=O)[C@H](CCCNC(=N)N)NC(=O)[C@@H](N)CCCNC(=N)N)C(=O)N[C@@H](CO)C(=O)N[C@@H](Cc1c[nH]cn1)C(=O)N[C@@H](CCCCN)C(=O)NCC(=O)N1CCC[C@H]1C(=O)N[C@@H](CC[S+](C)[O-])C(=O)O (some centres unmarked) | 9.21

What value of pIC50 on APJ (Homo sapiens) does CC(C)C[C@H](NC(=O)[C@H](CCCNC(=N)N)NC(=O)[C@@H]1CCCN1C(=O)[C@@H](N)CCCNC(=N)N)C(=O)N[C@@H](CO)C(=O)N[C@@H](C)C(=O)N[C@@H](CCCNC(=N)N)C(=O)NCC(=O)N1CCC[C@H]1C(=O)N[C@@H](C)C(=O)N1CCC[C@H]1C(=O)N[C@@H](Cc1ccc(Cl)cc1)C(=O)O [Compound in Ex. 53] (H-RPRLSARGPAP[Phe(4-Cl)]-OH; N-terminus and C-terminus assumed) have?
10.19

* * *

testedTarget: APJ (Homo sapiens, UniProt P35414)
Construct: expressed in transfected cells; host or cells: CHO (CHO-A10; clone 6 for the cAMP assay)
Sequence (P35414 whole entry): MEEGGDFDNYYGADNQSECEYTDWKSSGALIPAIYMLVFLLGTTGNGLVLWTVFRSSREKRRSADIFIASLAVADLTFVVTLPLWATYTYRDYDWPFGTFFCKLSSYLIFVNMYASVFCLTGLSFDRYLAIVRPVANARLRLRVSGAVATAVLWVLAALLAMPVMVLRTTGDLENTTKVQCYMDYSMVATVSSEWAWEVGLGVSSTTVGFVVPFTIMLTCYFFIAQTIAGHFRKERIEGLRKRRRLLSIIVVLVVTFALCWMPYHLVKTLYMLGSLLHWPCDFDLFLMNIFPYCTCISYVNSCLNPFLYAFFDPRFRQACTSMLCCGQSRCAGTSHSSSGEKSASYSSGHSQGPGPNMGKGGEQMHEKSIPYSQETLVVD
assayProtocol: Receptor binding assay-1 (125I-labeled compound in Reference Example 1, CHO-A10 membrane fraction)
testParameters: 125I-labeled compound in Reference Example 1 at 100 pM, room temperature […]
Non-standard residues stand in square brackets, D forms with d. Residues, ends and D or L forms follow the SMILES beside them. Phe(4-Cl) = N[C@@H](Cc1ccc(Cl)cc1)C(=O)O; Cha = N[C@@H](CC1CCCCC1)C(=O)O
# IC50 per entry
The answer is to be given in nM; state only the numeric part.

Fill in the blank: the reported IC50 of CSCC[C@H](NC(=O)[C@@H]1CCCN1C(=O)CNC(=O)[C@H](CCCCN)NC(=O)[C@H](Cc1c[nH]cn1)NC(=O)[C@H](CO)NC(=O)[C@H](CC(C)C)NC(=O)[C@H](CCCNC(=N)N)NC(=O)[C@@H]1CCCN1C(=O)[C@H](CCCNC(=N)N)NC(=O)[C@H](C)NC(=O)[C@H](CCCNC(=N)N)NC(=O)[C@@H](N)CCCNC(=N)N)C(=O)N1CCC[C@H]1C(=O)N[C@@H](Cc1ccccc1)C(=O)O is ____.
34

Fill in the blank: the reported IC50 of CC(C)C[C@H](NC(=O)[C@H](CCCNC(=N)N)NC(=O)[C@@H]1CCCN1C(=O)[C@@H](N)CCCNC(=N)N)C(=O)N[C@@H](Cc1ccccc1)C(=O)N[C@@H](Cc1c[nH]cn1)C(=O)N[C@@H](CCCCN)C(=O)NCC(=O)N1CCC[C@H]1C(=O)N[C@@H](CC1CCCCC1)C(=O)N1CCC[C@H]1C(=O)N[C@@H](Cc1ccccc1)C(=O)O [Compound in Ex. 15] (H-RPRLFHKGP[Cha]PF-OH; N-terminus and C-terminus assumed) is ____.
8

Fill in the blank: the reported IC50 of CC(C)C[C@H](NC(=O)[C@H](CCCNC(=N)N)NC(=O)[C@@H]1CCCN1C(=O)[C@@H](N)CCCNC(=N)N)C(=O)N[C@@H](Cc1ccccc1)C(=O)N[C@@H](C)C(=O)N[C@@H](CCCNC(=N)N)C(=O)NCC(=O)N1CCC[C@H]1C(=O)N[C@@H](CC1CCCCC1)C(=O)N1CCC[C@H]1C(=O)N[C@@H](Cc1ccc(Cl)cc1)C(=O)O [Compound in Ex. 12] (H-RPRLFARGP[Cha]P[Phe(4-Cl)]-OH) is ____.
2.3
